- experimental_target: Quinolinate phosphoribosyltransferase (HsQPRT) (Homo sapiens, UniProt Q15274)
- Construct: gene QPRT; full-length HsQPRT (residues 1–297), hexamer
- Sequence (Q15274 whole entry, the tested form may be a part): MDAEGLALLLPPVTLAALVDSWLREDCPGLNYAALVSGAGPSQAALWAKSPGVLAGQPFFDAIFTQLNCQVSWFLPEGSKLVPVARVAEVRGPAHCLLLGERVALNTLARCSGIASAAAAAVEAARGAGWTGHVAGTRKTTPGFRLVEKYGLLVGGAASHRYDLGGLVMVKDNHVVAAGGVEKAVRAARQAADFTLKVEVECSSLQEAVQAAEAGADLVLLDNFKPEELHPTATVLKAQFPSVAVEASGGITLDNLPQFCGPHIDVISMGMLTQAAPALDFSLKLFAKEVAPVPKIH
- assay_remarks: ITC
- Type: binding
observation_type: pKd
# log scale: pKd equals minus log10 of the concentration in mol/L

Input O=C(O)c1ccccc1C(=O)O [phthalic acid] . Output pKd: 5.28

---

- experimental_target: Quinolinate phosphoribosyltransferase (HsQPRT) (Homo sapiens, UniProt Q15274)
- Construct: gene QPRT; full-length HsQPRT (residues 1–297), hexamer
- assay_remarks: ITC and crystal structure ([…] Å)
- Type: binding
observation_type: Kd (µM)
Numeric only. Scale: µM

Input O=C(O)c1cccnc1C(=O)O [QA, quinolinic acid] . Output Kd: 4.8
